Test system: MOLT-4 leukemia
Experiment: NCI-60 one-dose screen, 48 h (100 = growth as untreated, 0 = no growth, -100 = all killed)
Conditions: 10 µM unless noted
About 83,000 compounds went through this panel and 20% of them were active in at least one assay; those are over-represented in the sample as a whole.

{"columns": ["compound", "growth [%]"],
 "data": [
  ["O=C1OCC2=C1C(c1cccc(C(F)(F)F)c1)c1cc3c(cc1N2CCO)CCC3 (centres undefined)", 7.83],
  ["O=C(Cn1cc(CN2CCN(c3ccnc4cc(Cl)ccc34)CC2)nn1)Nc1cccc([N+](=O)[O-])c1", 80],
  ["FC(F)(F)Sc1ccc(/C=C/c2cc(/C=C/c3ccc(SC(F)(F)F)cc3)n(-c3ccccc3)n2)cc1", 95.6],
  ["CN(C)C1CCN(C(=O)c2ccc(NC(=O)Nc3ccc(-c4nc(N5CCOCC5)c5cccn5n4)cc3)cc2)CC1", 0.188]
]}

---

Tested on: TK-10 renal
Assay: NCI-60 one-dose screen, 48 h (100 = growth as untreated, 0 = no growth, -100 = all killed)
Settings: 10 µM
About 83,000 compounds went through this panel and 20% of them were active in at least one assay; those are over-represented in the sample as a whole.

{"columns": ["chem.smiles", "growth / %"],
 "data": [
  ["COc1ccc(C(=O)/C=C/c2ccc(OCc3ccc(Cl)cc3)cc2)cc1OC", 101],
  ["CC(C)(C)CC(N)=O", 100],
  ["CCN(Cc1ccccc1)c1ccc(/C=C2\\COc3ccccc3C2=O)cc1", 119],
  ["CC(=O)/C=C/c1ccc(OCc2ccc(Cl)cc2)cc1", 77.6],
  ["O=C(/C=C/c1cccc(Oc2ccc(Cl)cc2)c1)c1ccccc1", 105],
  ["CC(=O)/C=C/c1ccc(N(CCO)Cc2ccc(C(C)(C)C)cc2)cc1", 96.7],
  ["CC(=O)/C=C/c1ccc(OCc2ccc(C(C)(C)C)cc2)cc1", 111]
]}

---

Tested on: A498 renal
Experiment: NCI-60 one-dose screen, 48 h (100 = growth as untreated, 0 = no growth, -100 = all killed)
Settings: 10 µM unless noted
The panel holds about 83,000 compounds, 20% with a hit somewhere; the sample as a whole holds those more often.

{"columns": ["chem.smiles", "assayed.target", "growth (%)"],
 "data": [
  ["COc1ccc(Cn2cc(C(=O)Nc3cccnc3Nc3ccccc3)nn2)cc1", "A498 renal", 117],
  ["CC[C@@H]1NC(=O)[C@H]([C@H](O)[C@H](C)C/C=C/c2ccc(CN3C(=O)C(C)=C(C)C3=O)cc2)N(C)C(=O)[C@H](C(C)C)N(C)C(=O)[C@H](CC(C)C)N(C)C(=O)[C@H](CC(C)C)N(C)C(=O)[C@@H](C)NC(=O)[C@H](C)NC(=O)[C@H](CC(C)C)N(C)C(=O)[C@H](C(C)C)NC(=O)[C@H](CC(C)C)N(C)C(=O)CN(C)C1=O", "A498 renal", 54.2],
  ["CON1CCC[C@]2(C)[C@H]3CC[C@@H]4[C@H]5[C@@H](O)C(C)(C)CC[C@]5(CO)CC[C@@]4(C)[C@]3(C)CC[C@H]2C1(C)C", "A498 renal", 114]
]}

---

Test system: M14 melanoma
Test: NCI-60 one-dose screen, 48 h (100 = growth as untreated, 0 = no growth, -100 = all killed)
Details: 10 µM unless noted
Compounds without any hit were thinned out: in the full panel of roughly 83,000, 20% have a hit.
With a cut-off of 80%, any growth strictly below it is called class 1; any growth meeting it or above is called class 0.

{"columns": ["compound", "class"],
 "data": [
  ["O=C1C(N2CCOCC2)=C(I)C(=O)c2ncccc21", "class 0"],
  ["CCN(CC)CCCN1C(=O)c2c(c(C)c3c(oc4cc(OC)ccc43)c2C)C1=O", "class 0"],
  ["C[N+]1=C(/C=C\\C=C\\c2ccccc2)C(C)(C)c2ccccc21", "class 1"],
  ["CCCCSc1ccc2nc(-c3ccc(OCCCN=C(N)N)cc3)cn2c1", "class 1"],
  ["Nc1ccc(-c2nc3ccc4[nH]ncc4c3c3c2CCCC3)cc1F", "class 1"],
  ["COC(=O)c1[nH]nc(OC)c1C1(C(C#N)c2nc3ccccc3s2)CCCc2ccccc21 (stereo not drawn)", "class 0"],
  ["C=C(CN1CC=CCC1)[C@@H]1CC[C@]2(COC(C)=O)CC[C@]3(C)[C@H](CC[C@@H]4[C@@]5(C)CC[C@H](O)C(C)(C)[C@@H]5CC[C@]43C)[C@@H]12", "class 0"],
  ["Nc1c(C(=O)Nc2ccncc2)sc2nc3c(cc12)CCCCCCCC3", "class 1"],
  ["COc1ccc(/C=N\\Nc2nc(SCC(C)C)nc(-c3ccc(OC)cc3)c2C#N)cc1", "class 1"],
  ["CCOC(=O)c1c(-c2ccc(OC)cc2)c(C#N)c2c(C#N)c(N)nn2c1N", "class 1"],
  ["CCCCCCCCN(CCCCCCCC)CC(O)c1cc(Cl)ccc1OC (stereo not drawn)", "class 0"],
  ["O=c1oc2c(Br)cc(Br)cc2cc1-c1cc(-c2ccc(-c3cc(-c4cc5cc(Br)cc(Br)c5oc4=O)nc(-c4cc5cc(Br)cc(Br)c5oc4=O)c3)cc2)cc(-c2cc3cc(Br)cc(Br)c3oc2=O)n1", "class 0"],
  ["CCCCC(NC(=O)CN1C(=O)/C(=C/C(C)=C/c2ccccc2)SC1=S)C(=O)O (stereo not drawn)", "class 0"]
]}

---

Tested on: RPMI-8226 leukemia
Test: NCI-60 one-dose screen, 48 h
Details: 10 µM unless noted
This is part of a sample that, as a whole, favours compounds with a hit. Of some 83,000 tested, about 20% had one in any assay. The source made the active and inactive calls. How the source made its calls: active means growth percent below 10; inactive means the rest.
Outcome codes: active, inactive

{"columns": ["compound", "class"],
 "data": [
  ["Cc1nnc(NS(=O)(=O)c2ccc(N=Nc3ccc(N)nc3N)cc2)s1", "inactive"],
  ["CC/C=C\\C/C=C\\C[C@H](O)C/C=C1/C(=O)C=C[C@@H]1C/C=C\\CCCC(=O)OC", "active"],
  ["COc1cc(N=Nc2ccc(O)c3ncccc23)c2ncccc2c1", "inactive"],
  ["O=C1C(c2c[nH]c3ccccc23)=C(c2coc3cc(Br)ccc23)C(=O)N1O", "inactive"],
  ["Cc1ccc(S(=O)(=O)OC[C@@]2(C)CC[C@]3(C)CC[C@]4(C)C(=C3C2)C=C[C@@H]2[C@@]3(C)CCCNC(C)(C)[C@@H]3CC[C@]24C)cc1", "active"],
  ["NS(=O)(=O)OCC1OC(n2cnc3cncnc32)C(O)C1O (centres undefined)", "inactive"],
  ["C=C1CC[C@@H]2[C@](C)(COC(C)=O)[C@H](OC(C)=O)CC[C@@]2(C)[C@@H]1CC(Nc1ccc(S(=O)(=O)Nc2nccs2)cc1)C1=CCOC1=O (some centres undefined)", "active"],
  ["O=C1C(=C(O)c2ccccc2)C(=O)c2ccccc21", "inactive"],
  ["C/C(=C(\\c1ccc(OCCN2CCOCC2)cc1)c1ccc(OC(=O)C2CCCCC2)cc1)c1ccc(Cl)cc1", "inactive"],
  ["CCN(c1cc(-c2ccc(CN3CCC(/C=C/S(=O)(=O)c4ccccc4)CC3)cc2)cc(C(=O)NCc2c(C)cc(C)[nH]c2=O)c1C)C1CCOCC1", "inactive"],
  ["O=C(CCCOc1ccc(Br)cc1)Nc1ncc(Cc2ccc(F)cc2)s1", "inactive"],
  ["O=S(=O)(Nc1cc(Sc2cccc3cccnc23)c(O)c2ccccc12)c1ccc(F)cc1", "active"],
  ["COc1ccccc1/C=C1\\COc2ccc(O)cc2C1=O", "active"],
  ["OCCN1CCN(c2cc(-c3cccc(OC(F)(F)F)c3)nc3ccc(N4CCCC4)cc23)CC1", "inactive"],
  ["O=C1CCc2c(sc3[nH]c(=S)n(Cc4ccc(Cl)cc4)c(=O)c23)C1", "active"],
  ["O=C1OCC2=C1C(c1cccc(C(F)(F)F)c1)c1cc3c(cc1N2CCO)OCCO3 (centres undefined)", "inactive"],
  ["CC/C(=C(/c1ccc(O)cc1)c1ccc(OCCN2CCCCCC2)cc1)c1ccc(Cl)cc1", "active"],
  ["O=C(NCCCN1CCCCC1)c1ccc(-c2nc3ccc4[nH]ncc4c3c3c2CCCC3)cc1", "inactive"],
  ["O=C1/C(=C/c2ccccc2)CN(C(=O)C(Cl)Cl)C/C1=C\\c1ccccc1", "active"]
]}

---

System: RXF 393 renal
Assay: NCI-60 one-dose screen, 48 h
Details: 10 µM unless noted
About 83,000 compounds went through this panel and 20% of them were active in at least one assay; those are over-represented in the sample as a whole. The source made the active and inactive calls. The calls were made as follows: active = growth percent below 10; inactive = the rest.
Outcome codes: active, inactive

{"columns": ["molecule", "assayed.target", "class"],
 "data": [
  ["O=C1/C(=C/c2ccc(-c3ccccc3C(F)(F)F)o2)SC(=S)N1CCc1ccc(O)cc1", "RXF 393 renal", "inactive"],
  ["C=C1CC[C@@H]2[C@](C)(COC(C)=O)[C@H](OC(C)=O)CC[C@@]2(C)[C@@H]1CC(Nc1ccc(S(=O)(=O)Nc2nccs2)cc1)C1=CCOC1=O (some centres undefined)", "RXF 393 renal", "active"],
  ["Cc1oc2c(Cc3ccc(NC(=O)c4ccc(Cl)cc4)cc3)ncnc2c1C(=O)NO", "RXF 393 renal", "inactive"],
  ["COc1ccc(C/C(C)=C(\\c2ccc(O)cc2)c2ccc(OCCCN(C)C)cc2)cc1", "RXF 393 renal", "inactive"]
]}

Reference source for all entries: PubChem BioAssay (NCI)
